- Tgt: IRAP (Homo sapiens)
- Construct: The screen was performed with the soluble truncated IRAP enzyme; made in house
- Sequence (Q9UIQ6 155-1025 limits assumed): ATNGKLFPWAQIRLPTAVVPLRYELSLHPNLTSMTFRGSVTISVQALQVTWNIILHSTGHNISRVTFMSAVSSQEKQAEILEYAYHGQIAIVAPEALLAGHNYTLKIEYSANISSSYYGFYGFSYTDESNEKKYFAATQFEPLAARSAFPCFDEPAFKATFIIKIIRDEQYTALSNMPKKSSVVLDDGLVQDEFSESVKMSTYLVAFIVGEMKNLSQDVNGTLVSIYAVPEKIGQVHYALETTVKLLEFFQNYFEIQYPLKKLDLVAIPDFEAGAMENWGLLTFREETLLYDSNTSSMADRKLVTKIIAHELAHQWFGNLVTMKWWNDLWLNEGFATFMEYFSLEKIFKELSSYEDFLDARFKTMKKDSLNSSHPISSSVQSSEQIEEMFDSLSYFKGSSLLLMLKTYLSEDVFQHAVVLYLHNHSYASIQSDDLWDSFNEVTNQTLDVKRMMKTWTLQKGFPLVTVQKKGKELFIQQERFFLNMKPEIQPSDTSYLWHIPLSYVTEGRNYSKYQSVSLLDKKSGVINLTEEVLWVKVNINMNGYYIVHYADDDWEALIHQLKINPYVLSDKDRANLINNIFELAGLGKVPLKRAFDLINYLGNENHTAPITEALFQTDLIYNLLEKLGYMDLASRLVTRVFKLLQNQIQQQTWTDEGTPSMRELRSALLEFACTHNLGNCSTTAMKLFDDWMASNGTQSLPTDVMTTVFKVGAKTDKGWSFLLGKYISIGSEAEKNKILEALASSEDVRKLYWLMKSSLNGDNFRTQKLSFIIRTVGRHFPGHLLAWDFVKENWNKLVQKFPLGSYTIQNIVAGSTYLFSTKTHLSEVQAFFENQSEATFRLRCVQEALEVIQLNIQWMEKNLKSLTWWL
- Test protocol: Primary fluorescence IRAP assay (L-Leucine-7-amido-4-methylcoumarin cleavage)
- Assay type: biochemical
- Applied conditions: 37.5 µM L-Leucine-7-amido-4-methylcoumarin, 60 min RT, dose-response 20 µM-27.4 nM; read-out: Fluorescence IC50
Readout name: IC50 (µM)

Examples with their reported IC50 follow.
CC(C)[C@@H](CS(=O)(=O)N(C)Cc1sc2ccccc2c1Cl)C(=O)NO
2.82
O=C1CN(c2cc(=O)n3ccn(Cc4ccc(F)cc4Cl)c3n2)CCN1
4.68
CC(C)[C@@H](CS(=O)(=O)N(C)CC1CCc2ccccc2C1)C(=O)NO (stereo partly shown)
2.63

P: CC(C)c1cc(C(=O)N2CCc3n[nH]c(-c4cccs4)c3CC2)[nH]n1
Q: Fc1ccc(F)c(Cn2ccc3ncc(N4CCNCC4)cc32)c1Cl
R: NCC[C@H]1CCCCN1C(=O)Cn1nc(-c2ccc(Cl)nc2)c2c1CCCC2
S: COCCN1CCc2cnc(NCc3ccc(S(N)(=O)=O)cc3)cc21
input: Rank descending by IC50. // respond by listing labels in the order requested
output: S, R, P, Q
